Data origin: ChEMBL document CHEMBL1138740

TARGET_SYSTEM: Corticotropin-releasing factor receptor 1 (Homo sapiens, UniProt P34998)
Sequence (P34998 whole entry): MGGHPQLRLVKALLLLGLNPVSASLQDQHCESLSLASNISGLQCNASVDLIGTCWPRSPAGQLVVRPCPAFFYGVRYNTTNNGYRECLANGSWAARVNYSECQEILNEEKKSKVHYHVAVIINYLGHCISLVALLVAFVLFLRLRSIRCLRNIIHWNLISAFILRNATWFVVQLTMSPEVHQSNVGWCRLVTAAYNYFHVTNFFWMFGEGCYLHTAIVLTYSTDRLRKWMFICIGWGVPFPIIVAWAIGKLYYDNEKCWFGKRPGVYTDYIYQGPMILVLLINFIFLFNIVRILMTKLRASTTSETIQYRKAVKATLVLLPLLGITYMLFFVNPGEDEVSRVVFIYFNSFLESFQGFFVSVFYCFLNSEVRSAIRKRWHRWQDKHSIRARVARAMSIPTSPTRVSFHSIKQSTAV
TEST_DETAILS: Inhibition of CRF-stimulated cAMP production in CHO cells expressing human CRF1 receptor
pIC50: −log10 of the molar value.
MEASURED_PROPERTY: pIC50

Would you please look over these solved cases?
CCCN(CCC)c1cc(C)nc2c(-c3ccc(N(C)C)nc3C)c(C)nn12 | 6.72
CCCN(CCC)c1cc(C)nc2c(-c3ncc(N(C)C)cc3C)c(C)nn12 | 6.80
CCCN(CCC)c1cc(C)nc2c(-c3c(C)cc(N(C)C)nc3C)c(C)nn12 | 7.40
CCCN(CCOC)c1cc(C)nc2c(-c3ccc(OC)cc3OC)c(C)nn12 | 7.12
CCCN(CCC)c1c(F)c(C)nc2c(-c3cnc(N(C)C)cc3C)c(C)nn12 | 7.30

I = CCCN(CC1CC1)c1cc(C)nc2c(-c3ccc(Cl)cc3Cl)c(C)nn12
II = CCCN(CCC)c1cc(C)nc2c(-c3ccc(N(C)C)nc3)c(C)nn12
Prompt: Given the two records I and II , choose the one whose pIC50 value is lower. Selection: enter the item's label.
Response: II
(II: 6.96, I: 7.54)

---

TARGET_SYSTEM: Corticotropin-releasing factor receptor 1 (Homo sapiens, UniProt P34998)
Sequence (P34998 whole entry): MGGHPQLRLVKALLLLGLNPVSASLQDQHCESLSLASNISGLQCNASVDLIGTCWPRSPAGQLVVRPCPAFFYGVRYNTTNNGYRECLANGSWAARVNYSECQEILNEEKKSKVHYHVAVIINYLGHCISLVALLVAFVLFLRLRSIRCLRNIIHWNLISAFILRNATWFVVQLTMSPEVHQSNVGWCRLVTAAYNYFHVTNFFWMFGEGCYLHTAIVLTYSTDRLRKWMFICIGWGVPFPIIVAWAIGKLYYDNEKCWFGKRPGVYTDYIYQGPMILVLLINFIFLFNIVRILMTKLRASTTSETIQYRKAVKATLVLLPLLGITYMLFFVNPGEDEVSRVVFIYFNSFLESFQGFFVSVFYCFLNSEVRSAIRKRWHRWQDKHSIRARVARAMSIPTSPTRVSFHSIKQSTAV
MEASURED_PROPERTY: Ki (nM)

CCCN(CC1CC1)c1cc(C)nc2c(-c3ccc(Cl)cc3Cl)c(C)nn12 | 1.6
CCC(COC)Nc1cc(C)nc2c(-c3cnc(N(C)C)cc3C)c(C)nn12 (stereo not drawn) | 260
CCN(Cc1cccc(C)c1)c1cc(C)nc2c(-c3cnc(N(C)C)cc3C)c(C)nn12 | 2.4

1 = CCC(CC)Nc1cc(C)nc2c(-c3cnc(N(C)C)cc3C)c(C)nn12
2 = CCN(Cc1ccc(Cl)c(Cl)c1)c1cc(C)nc2c(-c3cnc(N(C)C)cc3C)c(C)nn12
3 = CCCN(Cc1ccccc1)c1cc(C)nc2c(-c3cnc(N(C)C)cc3C)c(C)nn12
4 = CCCN(Cc1ccc2ccccc2c1)c1cc(C)nc2c(-c3cnc(N(C)C)cc3C)c(C)nn12
Prompt: Give the ascending ranking of the items by reported Ki. Respond with an ordered listing of the labels, as requested.
Response: 2, 3, 1, 4
(2: 2.5 nM, 3: 5.2 nM, 1: 9.4 nM, 4: 15 nM)

---

TEST_DETAILS: Plasma half-life determined in dawley rats
Assay type: ADME
TEST_SETTINGS: Sprague-Dawley, rat
MEASURED_PROPERTY: half-life (h)
Express the result in h but write the number alone.

The compound CCCN(CCC)c1cc(C)nc2c(-c3cnc(N(C)C)cc3C)c(C)nn12 showed half-life equal to 1.7

---

TEST_DETAILS: Plasma volume distribution determined in dawley rats
Format: ADME, organism-based
TEST_SETTINGS: Sprague-Dawley, rat
MEASURED_PROPERTY: Vd (L/kg)
Express the result in L/kg but write the number alone.

The compound CCCN(CCC)c1cc(C)nc2c(-c3cnc(N(C)C)cc3C)c(C)nn12 showed Vd equal to 16.7

---

Target protein (sequence): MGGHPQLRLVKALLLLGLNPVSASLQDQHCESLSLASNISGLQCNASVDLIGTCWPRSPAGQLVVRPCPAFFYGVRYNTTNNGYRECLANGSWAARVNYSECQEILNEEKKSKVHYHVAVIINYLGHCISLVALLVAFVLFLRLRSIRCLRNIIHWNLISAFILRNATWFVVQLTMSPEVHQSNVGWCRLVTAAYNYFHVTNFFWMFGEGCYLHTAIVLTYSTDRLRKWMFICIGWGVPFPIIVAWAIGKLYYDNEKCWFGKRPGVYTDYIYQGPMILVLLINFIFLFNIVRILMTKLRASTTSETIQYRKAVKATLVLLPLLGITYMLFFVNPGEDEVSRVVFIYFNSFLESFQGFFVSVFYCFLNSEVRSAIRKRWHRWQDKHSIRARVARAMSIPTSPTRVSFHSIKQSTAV
pKi: −log10 of the molar value.
MEASURED_PROPERTY: pKi

Would you please look over these solved cases?
CCN(Cc1ccc(C)cc1)c1cc(C)nc2c(-c3cnc(N(C)C)cc3C)c(C)nn12 | 8.64
Cc1cc(N(Cc2ccccc2)C(C)C)n2nc(C)c(-c3cnc(N(C)C)cc3C)c2n1 | 7.96
CCCN(Cc1cccc(OC)c1)c1cc(C)nc2c(-c3cnc(N(C)C)cc3C)c(C)nn12 | 7.62
CCCN(CCC)c1cc(C)nc2c(-c3cnc(C)cc3C)c(C)nn12 | 8.14

A = CCCCN(Cc1ccccc1)c1cc(C)nc2c(-c3cnc(N(C)C)cc3C)c(C)nn12
B = Cc1cc(NC(C)C(C)C)n2nc(C)c(-c3cnc(N(C)C)cc3C)c2n1 (stereo unspecified)
Prompt: Given the two records A and B , choose the one whose pKi value is lower. Selection: enter the item's label.
Response: B
